- tested on: UniProtKB P0DTD1
- experiment description: biochemical
- Format: biochemical
- condition: Tables 5B-5E; M^pro 75 nM, substrate 10 μM
A collection of molecules and their measured pIC50
Schema: pIC50 number; meaning minus log10 of the concentration expressed in molar units.

Example cases with answers are listed next.
1) O=C1NC2(CC(c3ccc(F)cc3Cl)C2)C(=O)N1c1cncc2ccccc12 (stereo not shown) [Compound 33]: 7.00
2) CCN1C(=O)N(c2cncc3ccccc23)C(=O)C12CC(C1CCC1)C2 (stereo not shown) [Compound 75]: 5.70
3) O=C1NC2(CC(c3sccc3Br)C2)C(=O)N1c1cncc2ccccc12 (single isomer, unassigned) [Compound 44]: 7.09

Q: # lookup: pIC50 of O=C1N(c2cncc3ccccc23)C(=O)C2(CC(C3CCC3)C2)N1Cc1ncc[nH]1 (stereo not shown) [Compound 77]
Ans: 5.60
